For each entry below, report its koff value.
Target Entity: T1, Human OX40 protein (hOX40-His) (human, UniProt P43489 29-214)
T1 construct: Soluble analyte in the SPR assay; also called His-tagged human OX40; not shown: His tag
T1 sequence: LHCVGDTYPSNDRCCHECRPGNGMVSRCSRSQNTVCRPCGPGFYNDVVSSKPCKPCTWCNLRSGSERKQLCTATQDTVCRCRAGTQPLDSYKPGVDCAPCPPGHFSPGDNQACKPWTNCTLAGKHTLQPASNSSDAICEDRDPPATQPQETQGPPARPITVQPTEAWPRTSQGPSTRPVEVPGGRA
Assay Procedure: SPR, Biacore T200, antibody captured on Protein A chip, hOX40-His as analyte, 1:1 Langmuir fit
Field format: number, assumed s⁻¹, no unit text.

For 5C1-mHvKv-IgG1 (antibody, V domains shown, Chimeric: mouse 5C1 variable domains with human IgG1 constant domains; also called 5C1 chimeric antibody) VH: EVQLQQSGTVLARPGASVKMSCKASGYSFTSYWMHWVKQRPGQGLEWIGTIYPGNSDTSNNQKFKGKAKLTAVTSASTAYMELSSLTNEDSAVYYCTTFYYRYEDYYAMDYWGQGTSVTVSS VL: DIVMTQSHKFMSTSVGDRVSITCKASQDVNTAVAWYQQKPGQSPKLLIYSASYRYTGVPDRFTGSGSGTDFTFTISSVQAEDLAVYYCQQHYSTPFTFGSGTKLEIK , what is its reported koff?
0.00163

Field entry: 9H3-H3K3-IgG1 (antibody, V domains shown, Humanized, with human IgG1 constant domains; also called 9H3 humanized antibody H3K3) VH: QVQLVESGGGVVQPGRSLRISCAVSGFSLTSYGVLWVRQAPGKGLEWLGVIWSGGSTDYNAAFISRLTISRDNSKSTVYFQMNSLRAEDTAVYYCAREEFGYWGQGTLVTVSS VL: DIQMTQSPSSLSASVGDRVTITCRASQDINNYLNWYQQKPGGAVKLLIYYTSRLHSGVPSRFSGSGSGTDYTLTISSLQPEDIATYFCQQTNTLPWTFGGGTKLEIKR
0.000451

Field entry: 9A4 (mouse antibody) (antibody, V domains shown, also called 07-9A4) VH: EVQLQQFGAELVKPGASVKISCKASGYTFTDYNMDWVKQSHGKSLEWIGDINPNYDSTSYNQKFKGKATLTVDKSSSTAYMELRSLTSEDTAVYYCARGGYGNYVDYFDYWGQGTTLTVSS VL: NIVMTQSPKSMSMSVGERVTLSCKASENVVTYVSWYQQKPEQSPKLLIYGASNRYTGVPDRFTGSGSATDFTLTISSVQAEDLADYHCGQSYSYPYTFGGGTKLEIK
0.00192
